All figures here come from patent US20210380703A1.

# testTarget: human Fc (human)
# methodDescription: ELISA; negative control
Examples of binders with documented optical density follow.
parameter: optical density (OD)

binder="374_H07 (antibody, V domains shown) VH: EVQLLESGGGLVQPGGSLRLSCAASGFTFDSYGMNWVRQAPGKGLEWVANINYNGGYTGYADSVKGRFTISRDNSKNTLYLQMNSLRAEDTAVYYCARSANWHDTALDYWGQGTLVTVSS VL: DIQMTQSPSSLSASVGDRVTITCRASQSILTYLNWYQQKPGKAPKLLIYAATSRASGVPSRFSGSGSGTDFTLTISSLQPEDFATYYCQQSYETPLTFGGGTKVEIK" parameter="optical density" unitsofmeasure=OD endpointvalue=0.163
binder="365_E02 (antibody, V domains shown) VH: EVQLLESGGGLVQPGGSLRLSCAASGFTFSSYSMNWVRQAPGKGLEWVANINYNGGYTSYADSVKGRFTISRDNSKNTLYLQMNSLRAEDTAVYYCAKSATWHDTHLDYWGQGTLVTVSS VL: DIQMTQSPSSLSASVGDRVTITCRASQSIISYLNWYQQKPGKAPKLLIYAATSRASGVPSRFSGSGSGTDFTLTISSLQPEDFATYYCQQSYENPLTFGGGTKVEIK" parameter="optical density" unitsofmeasure=OD endpointvalue=0.357
